- target: mMATE1 (Mus musculus, UniProt Q8K0H1)
- Construct: expressed in transfected cells; host or cells: HEK293
- Sequence (Q8K0H1 with tags, fused parts or gaps): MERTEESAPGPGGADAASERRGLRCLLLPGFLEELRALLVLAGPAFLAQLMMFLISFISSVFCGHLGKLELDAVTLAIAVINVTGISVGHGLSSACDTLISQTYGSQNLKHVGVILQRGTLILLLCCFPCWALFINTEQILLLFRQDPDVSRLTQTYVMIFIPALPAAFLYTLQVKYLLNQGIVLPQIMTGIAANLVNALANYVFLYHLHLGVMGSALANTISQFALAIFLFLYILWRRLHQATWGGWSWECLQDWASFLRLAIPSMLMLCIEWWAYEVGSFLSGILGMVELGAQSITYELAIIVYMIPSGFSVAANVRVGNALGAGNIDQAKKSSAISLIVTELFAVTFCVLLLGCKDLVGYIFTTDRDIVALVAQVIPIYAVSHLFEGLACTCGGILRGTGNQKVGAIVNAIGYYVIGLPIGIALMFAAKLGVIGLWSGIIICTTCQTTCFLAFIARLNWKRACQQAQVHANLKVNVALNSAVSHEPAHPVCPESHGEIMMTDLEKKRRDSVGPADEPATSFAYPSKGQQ
- testName: Inhibition of RI-labeled TEA uptake in HEK293 cells expressing mMATE1;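 also: transfected HEK293 cells held 5 min at 37 °C before tracer addition, uptake read as radioactivity retained on a 0.45-µm membrane filter, mean ± SD of three to nine experiments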
- Type: cell-based
- experimentalContext: compound 0.1 mM; 50 μM RI-labeled TEA, pH 8.0, HEK293 cells expressing mMATE1; read-out: TEA uptake activity percent taking the level with addition of no compound as 100% (% ± S.D.)
Note to self: use fulfilled only for remaining activity at 100 µM readings below 30%; a reading exactly at 30% still gets not fulfilled.

Solved cases (4 shown):
1. C[C@]12C[C@H](O)[C@H]3[C@@H](CCC4=CC(=O)CC[C@@]43C)[C@@H]1CC[C@@H]2C(=O)CO :: not fulfilled
2. O=c1c(O)c(-c2ccc(O)c(O)c2)oc2cc(O)cc(O)c12 :: not fulfilled
3. C=C[C@H]1C[N@@]2CC[C@H]1C[C@@H]2[C@@H](O)c1ccnc2ccc(OC)cc12 :: fulfilled
4. CC(=O)[C@H]1CC[C@H]2[C@@H]3CCC4=CC(=O)CC[C@]4(C)[C@H]3CC[C@]12C :: fulfilled

Data request: Lab note: remaining activity at 100 µM threshold 30%. Does this molecule come in strictly under it? CN1CCCC1c1cccnc1 (stereo not drawn)
Data returned: not fulfilled

Data request: Consider the molecule `CN/C(=N/CCSCc1nc[nH]c1C)NC#N` . Is its remaining activity at 100 µM strictly less than 30%?
Data returned: fulfilled

Data credit: patent US8278032B2
